This section presents variants with their documented protein stability index values.
B1: CLK3 (parent)
chain: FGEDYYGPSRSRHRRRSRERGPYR

variants of: B1; assay: protein stability index of a GFP-peptide fusion (GPS, HEK-293T) (PSI 1-6); higher = more stable; conditions: c terminus: a fixed tail appended;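 note: lentivirally expressed fusions sorted by FACS into six bins by GFP to DsRed ratio, PSI derived from sequencing read proportions per bin multiplied by bin number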
Write the value as a bare number.

// query # lookup: protein stability index of `Y6I`
// result 4.38

// query Quick check: protein stability index of `S11Y` ?
// result 2.99

// query Item `E3D` has what recorded protein stability index?
// result 2.86

FYI, the data here is from the supplement of paper PMC10567573.
